The origin of these recorded values is ChEMBL document CHEMBL4390707.

Collected selectivity ratio values appear next to each entry.
experiment: Therapeutic index, ratio of CC50 for cat FL-4 cells to EC50 for inhibition of nucleocapsin protein in FIV infected in cat FL-4 cells; format: toxicity, cell-based; settings: FL-4 cells (FIV infected for EC50), read-out: Ratio CC50/EC50
experimental-endpoint: selectivity ratio

[[record]]
structure_smiles = "Clc1c2ssnc-2c2ccccc12"
value_qualifier = "="
reported_result = 36.3

[[record]]
structure_smiles = "N#Cc1c2n[se]sc-2c(Cl)c1Cl"
value_qualifier = "="
reported_result = 4.7

[[record]]
structure_smiles = "c1ccc(-c2c3ssnc-3c3ccccc23)cc1"
value_qualifier = ">"
reported_result = 4

[[record]]
structure_smiles = "Clc1c2n[se]sc-2c(Cl)c1Cl"
value_qualifier = "="
reported_result = 5.4

[[record]]
structure_smiles = "c1ccc(-c2c3s[se]nc-3c3ccccc23)cc1"
value_qualifier = "="
reported_result = 194

[[record]]
structure_smiles = "c1ccc2c(c1)N=C1S[Se]N=C1O2"
value_qualifier = "="
reported_result = 24

[[record]]
structure_smiles = "Cc1cn([C@H]2C[C@H](N=[N+]=[N-])[C@@H](CO)O2)c(=O)[nH]c1=O"
value_qualifier = ">"
reported_result = 37

[[record]]
structure_smiles = "Clc1c2s[se]nc-2c2ccccc12"
value_qualifier = "="
reported_result = 4.6

[[record]]
structure_smiles = "Clc1c2nssc-2c(Cl)c1Cl"
value_qualifier = "="
reported_result = 3.8

[[record]]
structure_smiles = "N#Cc1c2nssc-2c(Cl)c1Cl"
value_qualifier = "="
reported_result = 26.8

[[record]]
structure_smiles = "ClC1=C2SSN=C2c2ccccc2C(Cl)=C1Cl"
value_qualifier = "="
reported_result = 3.1

[[record]]
structure_smiles = "CCOC(=O)c1c2nssc-2c(Cl)c1Cl"
value_qualifier = "="
reported_result = 11.4

[[record]]
structure_smiles = "c1ccc2c(c1)N=C1SSN=C1O2"
value_qualifier = "="
reported_result = 14

[[record]]
structure_smiles = "CCOC(=O)c1c2n[se]sc-2c(Cl)c1Cl"
value_qualifier = "="
reported_result = 61.9

[[record]]
structure_smiles = "ClC1=C2S[Se]N=C2c2ccccc2C(Cl)=C1Cl"
value_qualifier = "="
reported_result = 3.3


* * *

assay: Cytotoxicity against cat CRFK cells measured after 24 hrs by MTT assay; format: cell-based, Felis catus
experimental-endpoint: CC50 at 24 h

[[record]]
compound = "ClC1=C2S[Se]N=C2c2ccccc2C(Cl)=C1Cl"
reported_result = "> 100 µM"

[[record]]
compound = "c1ccc(-c2c3ssnc-3c3ccccc23)cc1"
reported_result = "> 100 µM"

[[record]]
compound = "ClC1=C2SSN=C2c2ccccc2C(Cl)=C1Cl"
reported_result = "> 100 µM"

[[record]]
compound = "CCOC(=O)c1c2n[se]sc-2c(Cl)c1Cl"
reported_result = "> 100 µM"

[[record]]
compound = "Clc1c2ssnc-2c2ccccc12"
reported_result = "> 100 µM"

[[record]]
compound = "Clc1c2nssc-2c(Cl)c1Cl"
reported_result = "68 µM"

[[record]]
compound = "c1ccc(-c2c3s[se]nc-3c3ccccc23)cc1"
reported_result = "56 µM"

[[record]]
compound = "Clc1c2s[se]nc-2c2ccccc12"
reported_result = "98 µM"

[[record]]
compound = "CCOC(=O)c1c2nssc-2c(Cl)c1Cl"
reported_result = "> 100 µM"

[[record]]
compound = "Clc1c2n[se]sc-2c(Cl)c1Cl"
reported_result = "62 µM"

[[record]]
compound = "N#Cc1c2n[se]sc-2c(Cl)c1Cl"
reported_result = "> 100 µM"

[[record]]
compound = "c1ccc2c(c1)N=C1S[Se]N=C1O2"
reported_result = "> 100 µM"

[[record]]
compound = "Cc1cn([C@H]2C[C@H](N=[N+]=[N-])[C@@H](CO)O2)c(=O)[nH]c1=O [ZIDOVUDINE]"
reported_result = "> 100 µM"

[[record]]
compound = "c1ccc2c(c1)N=C1SSN=C1O2"
reported_result = "> 100 µM"

[[record]]
compound = "N#Cc1c2nssc-2c(Cl)c1Cl"
reported_result = "> 100 µM"


* * *

assay: Cytotoxicity against cat FL-4 cells measured after 7 days by MTT assay; format: cell-based, Felis catus
Collected CC50 at 168 h values appear next to each entry.
experimental-endpoint: CC50 at 168 h (µM)

[[record]]
compound = "ClC1=C2S[Se]N=C2c2ccccc2C(Cl)=C1Cl"
value_qualifier = "="
reported_result = 0.83

[[record]]
compound = "c1ccc2c(c1)N=C1S[Se]N=C1O2"
value_qualifier = "="
reported_result = 5.8

[[record]]
compound = "CCOC(=O)c1c2n[se]sc-2c(Cl)c1Cl"
value_qualifier = "="
reported_result = 5.1

[[record]]
compound = "Cc1cn([C@H]2C[C@H](N=[N+]=[N-])[C@@H](CO)O2)c(=O)[nH]c1=O [ZIDOVUDINE]"
value_qualifier = ">"
reported_result = 100

[[record]]
compound = "c1ccc(-c2c3ssnc-3c3ccccc23)cc1"
value_qualifier = ">"
reported_result = 100

[[record]]
compound = "N#Cc1c2nssc-2c(Cl)c1Cl"
value_qualifier = "="
reported_result = 39

[[record]]
compound = "CCOC(=O)c1c2nssc-2c(Cl)c1Cl"
value_qualifier = "="
reported_result = 3.5

[[record]]
compound = "N#Cc1c2n[se]sc-2c(Cl)c1Cl"
value_qualifier = "="
reported_result = 18

[[record]]
compound = "c1ccc2c(c1)N=C1SSN=C1O2"
value_qualifier = "="
reported_result = 57

[[record]]
compound = "Clc1c2nssc-2c(Cl)c1Cl"
value_qualifier = "="
reported_result = 6.1

[[record]]
compound = "ClC1=C2SSN=C2c2ccccc2C(Cl)=C1Cl"
value_qualifier = "="
reported_result = 9.3

[[record]]
compound = "Clc1c2n[se]sc-2c(Cl)c1Cl"
value_qualifier = "="
reported_result = 6.5

[[record]]
compound = "Clc1c2s[se]nc-2c2ccccc12"
value_qualifier = "="
reported_result = 5.7

[[record]]
compound = "Clc1c2ssnc-2c2ccccc12"
value_qualifier = "="
reported_result = 49

[[record]]
compound = "c1ccc(-c2c3s[se]nc-3c3ccccc23)cc1"
value_qualifier = "="
reported_result = 50

